Where do these numbers come from? They come from patent US11464780B2.

A set of compounds tested on UniProt Q9UM73, with measured IC50:
Express the result in µM but write the number alone.

Consider O=C1NC2(CC2)COc2ccc(F)cc2[C@H]2CCON2c2ccn3ncc1c3n2 (single isomer, unassigned) [WX003A] . Its measured IC50 is 0.0281

Consider C[C@H]1CNC(=O)c2cnn3ccc(nc23)N2OCC[C@@H]2c2cc(F)cnc2O1 [WX005B] . Its measured IC50 is 0.0194

Consider C[C@@H]1COc2ncc(F)cc2[C@H]2CCON2c2ccn3ncc(c3n2)C(=O)N1 [WX004A] . Its measured IC50 is 0.109

Consider O=C1N[C@@H]2CCC[C@@H]2Oc2ncc(F)cc2[C@H]2CCON2c2ccn3ncc1c3n2 [WX007A] . Its measured IC50 is 0.0116

---

Provide the recorded Cmax for the entries that follow.
assay: In vivo pharmacokinetic test in mice; parameters: species or system male CD-1 mice; settings: male, CD-1, mouse, plasma, PO dose of 10 mL/kg, read-out: Peak concentration Cmax
Express the result in µM but write the number alone.

Consider O=C1N[C@@H]2CCC[C@@H]2Oc2ncc(F)cc2[C@H]2CCON2c2ccn3ncc1c3n2 [WX007A] . Its measured Cmax is 22.6

Consider C[C@H]1CNC(=O)c2cnn3ccc(nc23)N2OCC[C@@H]2c2cc(F)cnc2O1 [WX005B] . Its measured Cmax is 17.2

Consider C[C@@H]1COc2ccc(F)cc2[C@H]2CCON2c2ccn3ncc(c3n2)C(=O)N1 [WX017A] . Its measured Cmax is 10.8

Consider C[C@@H]1COc2ncc(F)cc2[C@H]2CCON2c2ccn3ncc(c3n2)C(=O)N1 [WX004A] . Its measured Cmax is 10.5

Consider O=C1N[C@@H]2COCC[C@@H]2Oc2ncc(F)cc2[C@H]2CCON2c2ccn3ncc1c3n2 [WX010B] . Its measured Cmax is 13

Consider O=C1N[C@@H]2COC[C@@H]2Oc2ncc(F)cc2[C@H]2CCON2c2ccn3ncc1c3n2 [WX008A] . Its measured Cmax is 12.2

Consider O=C1NC2(COC2)COc2ncc(F)cc2[C@H]2CCON2c2ccn3ncc1c3n2 [WX006A] . Its measured Cmax is 8.78

---

Provide the recorded AUC(0-t) for the entries that follow.
assay: In vivo pharmacokinetic test in mice; set-up: species or system male CD-1 mice; conditions: male, CD-1, mouse, plasma, PO dose of 10 mL/kg, read-out: Area under the curve AUC0-last
Express the result in µM·h but write the number alone.

Consider C[C@@H]1COc2ccc(F)cc2[C@H]2CCON2c2ccn3ncc(c3n2)C(=O)N1 [WX017A] . Its measured AUC(0-t) is 26.7

Consider C[C@H]1CNC(=O)c2cnn3ccc(nc23)N2OCC[C@@H]2c2cc(F)cnc2O1 [WX005B] . Its measured AUC(0-t) is 29.4

Consider O=C1N[C@@H]2COCC[C@@H]2Oc2ncc(F)cc2[C@H]2CCON2c2ccn3ncc1c3n2 [WX010B] . Its measured AUC(0-t) is 49.2

Consider C[C@@H]1COc2ncc(F)cc2[C@H]2CCON2c2ccn3ncc(c3n2)C(=O)N1 [WX004A] . Its measured AUC(0-t) is 29.6

Consider O=C1NC2(COC2)COc2ncc(F)cc2[C@H]2CCON2c2ccn3ncc1c3n2 [WX006A] . Its measured AUC(0-t) is 14.4

Consider O=C1N[C@@H]2COC[C@@H]2Oc2ncc(F)cc2[C@H]2CCON2c2ccn3ncc1c3n2 [WX008A] . Its measured AUC(0-t) is 39.6

Consider O=C1N[C@@H]2CCC[C@@H]2Oc2ncc(F)cc2[C@H]2CCON2c2ccn3ncc1c3n2 [WX007A] . Its measured AUC(0-t) is 54.9
